- Assay System: human α1H T-type channels (Homo sapiens)
- Construct: expressed in transfected cells; host or cells: HEK 293
- Test Protocol: T-type calcium channel block, whole cell patch clamp in HEK cells (α1H)
- Assay type: cell-based
- Conditions Used: HEK cells, patch clamp, mainly non-inactivated protocol; values above 10 μM shown as 10 μM; read-out: T-type Calcium Channel Block α1H IC50
IC50 values for the molecules below.
Readout Name: IC50

>>> measured("Cc1cc(F)cc(C(=O)NCC2CCN(CCNC(=O)C3(C(F)(F)F)CC3)CC2)c1")
"220 nM"
>>> measured("CC(C)(C)C(C)(O)C(=O)N1CCC(CNC(=O)c2cc(C(F)(F)F)cc(C(F)(F)F)c2)CC1 (stereo not shown)")
"> 10000 nM"
>>> measured("COCC(C)(C)NC(=O)CN1CCC(CNC(=O)c2cc(F)cc(C(F)(F)F)c2)CC1")
"100 nM"
>>> measured("CC(C)(C)C(=O)NCCN1CCC(CNC(=O)c2cc(F)cc(F)c2)CC1")
"4070 nM"
>>> measured("CS(=O)(=O)c1cc(C(=O)NCC2CCN(CCNC(=O)C3(C(F)(F)F)CCC3)CC2)cc(C(F)(F)F)c1")
"4800 nM"
>>> measured("Cc1cc(C)cc(C(=O)NCC2CCN(CC(=O)NC(C)(C)C(F)(F)F)CC2)c1")
"40 nM"
>>> measured("COc1cc(F)cc(C(=O)NCC2CCN(CC(=O)NC(C)(C)C)CC2)c1")
"120 nM"
>>> measured("COc1cc(F)cc(C(=O)NCC2CCN(CC(=O)N3CCC[C@@H]3C(F)(F)F)CC2)c1")
"580 nM"
>>> measured("CN(C(=O)CN1CCC(CNC(=O)c2cc(F)cc(Cl)c2)CC1)C1(C)CCC1")
"150 nM"
>>> measured("O=C(NCC1CCN(C(=O)CNC2CCCC2)CC1)c1cc(C(F)(F)F)cc(C(F)(F)F)c1")
"500 nM"
>>> measured("O=C(NCC1CCN(CCNS(=O)(=O)C2CC2)CC1)c1cccc(OC(F)(F)F)c1")
"970 nM"
>>> measured("O=C(NCC1CCN(C(=O)CNC2CCCCC2O)CC1)c1cc(F)cc(C(F)(F)F)c1 (stereo not shown)")
"> 10000 nM"
>>> measured("CN(C(=O)CN1CCC(CNC(=O)c2cc(C(F)(F)F)cc(C(F)(F)F)c2)CC1)C1CCCCC1")
"140 nM"
>>> measured("O=C(NCC1CCN(C(=O)CNC2CC2)CC1)c1cc(F)cc(C(F)(F)F)c1")
"> 10000 nM"
>>> measured("COc1cc(Cl)cc(C(=O)N2CC(N3CCC(CNC(=O)c4cc(F)cc(Cl)c4)CC3)C2)c1")
"2050 nM"
>>> measured("CC(C)(C)C(=O)NCCN1CCC(CNC(=O)c2cccc(Cl)c2)CC1")
"1980 nM"

---

- Assay System: human α1G T-type channels (Homo sapiens)
- Construct: expressed in transfected cells; host or cells: HEK 293
- Sequence (O43497 whole entry): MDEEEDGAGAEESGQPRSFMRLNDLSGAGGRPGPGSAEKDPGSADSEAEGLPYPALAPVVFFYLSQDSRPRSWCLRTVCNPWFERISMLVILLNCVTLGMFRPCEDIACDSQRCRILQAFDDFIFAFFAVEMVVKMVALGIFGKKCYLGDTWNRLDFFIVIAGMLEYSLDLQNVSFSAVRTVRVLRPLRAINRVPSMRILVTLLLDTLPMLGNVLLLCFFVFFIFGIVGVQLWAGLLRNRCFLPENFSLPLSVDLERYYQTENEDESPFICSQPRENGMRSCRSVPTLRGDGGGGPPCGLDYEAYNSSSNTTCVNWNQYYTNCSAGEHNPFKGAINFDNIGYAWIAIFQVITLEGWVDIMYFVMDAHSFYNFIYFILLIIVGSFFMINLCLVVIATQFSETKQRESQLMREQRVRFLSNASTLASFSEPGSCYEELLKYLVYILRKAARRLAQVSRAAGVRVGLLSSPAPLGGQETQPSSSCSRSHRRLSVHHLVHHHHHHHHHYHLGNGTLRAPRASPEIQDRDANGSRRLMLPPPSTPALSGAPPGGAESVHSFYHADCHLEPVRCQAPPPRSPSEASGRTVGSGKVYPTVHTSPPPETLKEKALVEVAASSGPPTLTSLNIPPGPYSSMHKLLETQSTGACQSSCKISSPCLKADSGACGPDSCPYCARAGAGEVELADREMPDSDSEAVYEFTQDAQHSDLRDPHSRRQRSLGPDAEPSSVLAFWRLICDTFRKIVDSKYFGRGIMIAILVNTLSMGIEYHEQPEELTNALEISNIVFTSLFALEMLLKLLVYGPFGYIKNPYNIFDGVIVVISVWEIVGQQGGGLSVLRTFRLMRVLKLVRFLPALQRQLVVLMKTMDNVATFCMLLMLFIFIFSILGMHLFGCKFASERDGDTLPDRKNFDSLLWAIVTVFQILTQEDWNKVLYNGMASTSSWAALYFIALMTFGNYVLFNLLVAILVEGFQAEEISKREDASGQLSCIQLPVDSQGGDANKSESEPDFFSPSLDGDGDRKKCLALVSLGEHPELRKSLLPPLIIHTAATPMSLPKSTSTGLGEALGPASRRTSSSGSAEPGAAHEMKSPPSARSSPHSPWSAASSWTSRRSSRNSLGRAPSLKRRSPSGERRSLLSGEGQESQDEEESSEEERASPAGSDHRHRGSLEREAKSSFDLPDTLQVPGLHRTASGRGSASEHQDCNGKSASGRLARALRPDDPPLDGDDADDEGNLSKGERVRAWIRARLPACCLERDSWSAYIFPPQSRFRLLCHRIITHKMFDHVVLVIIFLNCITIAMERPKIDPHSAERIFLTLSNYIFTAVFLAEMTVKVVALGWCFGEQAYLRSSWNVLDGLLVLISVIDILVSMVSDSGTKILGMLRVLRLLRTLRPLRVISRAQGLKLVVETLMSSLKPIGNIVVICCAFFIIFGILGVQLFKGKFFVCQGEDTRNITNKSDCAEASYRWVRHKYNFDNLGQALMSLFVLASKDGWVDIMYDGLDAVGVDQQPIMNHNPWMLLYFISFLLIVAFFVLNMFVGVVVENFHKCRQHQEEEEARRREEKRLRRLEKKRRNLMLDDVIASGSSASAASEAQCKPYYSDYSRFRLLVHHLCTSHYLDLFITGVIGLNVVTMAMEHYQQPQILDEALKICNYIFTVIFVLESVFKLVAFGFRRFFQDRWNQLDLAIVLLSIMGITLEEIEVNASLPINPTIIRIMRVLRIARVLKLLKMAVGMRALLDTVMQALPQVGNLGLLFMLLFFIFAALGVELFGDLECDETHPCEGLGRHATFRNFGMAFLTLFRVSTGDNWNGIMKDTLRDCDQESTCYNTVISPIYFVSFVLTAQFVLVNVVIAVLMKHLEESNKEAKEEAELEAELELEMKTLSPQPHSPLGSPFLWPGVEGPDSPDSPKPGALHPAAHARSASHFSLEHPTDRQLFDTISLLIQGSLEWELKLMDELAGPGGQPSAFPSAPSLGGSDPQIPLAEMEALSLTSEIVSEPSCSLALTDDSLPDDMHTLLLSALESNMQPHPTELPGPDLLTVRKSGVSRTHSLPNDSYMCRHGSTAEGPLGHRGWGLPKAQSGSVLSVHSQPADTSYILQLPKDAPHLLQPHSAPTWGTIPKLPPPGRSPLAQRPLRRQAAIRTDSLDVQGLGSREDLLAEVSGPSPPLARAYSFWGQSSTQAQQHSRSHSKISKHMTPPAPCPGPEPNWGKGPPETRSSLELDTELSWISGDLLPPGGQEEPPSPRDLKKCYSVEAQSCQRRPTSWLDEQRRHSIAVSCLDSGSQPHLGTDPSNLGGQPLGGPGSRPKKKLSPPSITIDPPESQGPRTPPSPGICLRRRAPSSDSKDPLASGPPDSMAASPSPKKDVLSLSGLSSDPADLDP
- Test Protocol: T-type calcium channel block, whole cell patch clamp in HEK cells (α1G)
- Format: cell-based
- Conditions Used: HEK cells, patch clamp, mainly non-inactivated protocol; values above 10 μM shown as 10 μM, below 0.30 μM shown as 0.30 μM; read-out: T-type Calcium Channel Block α1G IC50
Readout Name: IC50

>>> measured("C[C@@H]1CCCCN1CC(=O)N1CCC(CNC(=O)c2cc(C(F)(F)F)cc(C(F)(F)F)c2)CC1")
"2.43 µM"
>>> measured("COc1cc(F)cc(C(=O)NCC2CCN(CC(=O)N3CCC[C@@H]3C(F)(F)F)CC2)c1")
"0.77 µM"
>>> measured("CC(C)(C)C(O)CN1CCC(CC(=O)Nc2cc(F)cc(C(F)(F)F)c2)CC1 (centres unmarked)")
"< 0.3 µM"
>>> measured("O=C(NCC1CCN(CCNS(=O)(=O)C2CCCC2)CC1)c1cc(F)cc(C(F)(F)F)c1")
"< 0.3 µM"
>>> measured("COc1ccc(C(=O)NCC2CCN(CCNS(=O)(=O)C(F)(F)F)CC2)cc1OC")
"> 10 µM"
>>> measured("O=C(CN1CCC(CNC(=O)c2cccc(Cl)c2)CC1)NC1CCCC1")
"0.38 µM"
>>> measured("O=C(NCC1CCN(CCNS(=O)(=O)C(F)(F)F)CC1)c1ccc(OC(F)(F)F)cc1")
"> 10 µM"
>>> measured("Cc1cc(F)cc(C(=O)NCC2CCN(CCNC(=O)C3CCCC3)CC2)c1")
"6.04 µM"

---

Collected IC50 values appear next to each entry.
- Assay System: human α1H T-type channels (Homo sapiens, UniProt O95180)
- Construct: expressed in transfected cells; host or cells: HEK 293
- Sequence (O95180 whole entry): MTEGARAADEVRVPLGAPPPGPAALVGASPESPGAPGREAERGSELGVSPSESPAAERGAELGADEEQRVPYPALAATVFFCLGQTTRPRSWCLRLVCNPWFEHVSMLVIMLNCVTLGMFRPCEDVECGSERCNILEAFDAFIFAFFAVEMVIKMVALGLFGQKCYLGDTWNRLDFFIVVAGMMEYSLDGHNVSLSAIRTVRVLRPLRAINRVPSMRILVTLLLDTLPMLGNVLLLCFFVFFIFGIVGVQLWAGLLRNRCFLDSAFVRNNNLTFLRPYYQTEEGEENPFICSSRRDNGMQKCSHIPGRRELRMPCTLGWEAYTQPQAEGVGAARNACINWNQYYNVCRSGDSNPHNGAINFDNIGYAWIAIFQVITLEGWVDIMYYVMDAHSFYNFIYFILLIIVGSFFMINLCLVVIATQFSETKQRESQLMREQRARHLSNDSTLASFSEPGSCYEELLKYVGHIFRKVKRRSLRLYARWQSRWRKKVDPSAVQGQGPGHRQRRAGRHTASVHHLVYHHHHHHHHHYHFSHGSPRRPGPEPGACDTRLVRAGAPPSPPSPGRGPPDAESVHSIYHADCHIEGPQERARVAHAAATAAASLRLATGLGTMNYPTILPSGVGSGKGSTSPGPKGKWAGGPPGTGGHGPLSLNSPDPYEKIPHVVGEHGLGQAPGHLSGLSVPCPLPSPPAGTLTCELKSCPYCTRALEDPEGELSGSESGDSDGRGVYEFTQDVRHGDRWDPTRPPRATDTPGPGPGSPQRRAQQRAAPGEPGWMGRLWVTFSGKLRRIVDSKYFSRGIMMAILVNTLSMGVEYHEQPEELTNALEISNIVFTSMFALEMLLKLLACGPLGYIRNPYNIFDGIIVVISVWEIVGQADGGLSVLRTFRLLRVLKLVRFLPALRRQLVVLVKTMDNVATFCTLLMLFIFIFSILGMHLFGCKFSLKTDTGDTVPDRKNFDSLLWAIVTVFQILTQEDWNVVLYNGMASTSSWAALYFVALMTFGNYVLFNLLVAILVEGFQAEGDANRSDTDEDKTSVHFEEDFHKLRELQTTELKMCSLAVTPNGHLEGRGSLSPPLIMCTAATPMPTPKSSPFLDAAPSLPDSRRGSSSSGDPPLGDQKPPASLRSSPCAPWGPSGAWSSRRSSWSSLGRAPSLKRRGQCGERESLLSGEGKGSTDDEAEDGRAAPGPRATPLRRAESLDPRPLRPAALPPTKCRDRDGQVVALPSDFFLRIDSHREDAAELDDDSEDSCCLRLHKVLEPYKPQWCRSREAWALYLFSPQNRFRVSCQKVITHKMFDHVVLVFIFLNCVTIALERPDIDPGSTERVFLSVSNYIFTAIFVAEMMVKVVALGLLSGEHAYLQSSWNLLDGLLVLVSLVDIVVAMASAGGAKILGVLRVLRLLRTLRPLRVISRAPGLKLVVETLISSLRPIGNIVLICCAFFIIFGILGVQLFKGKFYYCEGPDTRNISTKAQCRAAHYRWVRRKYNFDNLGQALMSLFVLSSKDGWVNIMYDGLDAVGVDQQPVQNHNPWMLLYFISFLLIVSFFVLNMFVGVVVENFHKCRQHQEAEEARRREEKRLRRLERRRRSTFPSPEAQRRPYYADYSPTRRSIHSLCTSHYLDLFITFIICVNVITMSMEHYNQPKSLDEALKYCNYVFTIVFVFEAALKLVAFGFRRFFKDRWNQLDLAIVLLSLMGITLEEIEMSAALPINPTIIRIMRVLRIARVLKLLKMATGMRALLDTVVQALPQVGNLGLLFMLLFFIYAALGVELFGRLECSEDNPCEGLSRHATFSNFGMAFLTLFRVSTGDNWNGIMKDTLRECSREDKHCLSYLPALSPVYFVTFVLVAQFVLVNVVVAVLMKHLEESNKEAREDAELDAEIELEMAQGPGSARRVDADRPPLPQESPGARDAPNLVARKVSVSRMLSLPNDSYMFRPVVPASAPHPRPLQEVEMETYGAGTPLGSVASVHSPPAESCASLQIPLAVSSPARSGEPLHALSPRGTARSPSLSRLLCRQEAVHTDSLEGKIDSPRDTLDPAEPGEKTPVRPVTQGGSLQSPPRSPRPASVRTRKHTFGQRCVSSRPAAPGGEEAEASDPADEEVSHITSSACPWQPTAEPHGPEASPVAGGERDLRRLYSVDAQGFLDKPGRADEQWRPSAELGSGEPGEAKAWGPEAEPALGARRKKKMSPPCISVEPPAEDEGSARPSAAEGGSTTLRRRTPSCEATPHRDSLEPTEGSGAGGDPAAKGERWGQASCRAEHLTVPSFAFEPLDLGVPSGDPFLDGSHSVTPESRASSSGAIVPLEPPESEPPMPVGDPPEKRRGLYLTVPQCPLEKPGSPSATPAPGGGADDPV
- Test Protocol: T-type calcium channel block, whole cell patch clamp in HEK cells (α1H)
- Assay type: cell-based
- Conditions Used: HEK cells, patch clamp, mainly non-inactivated protocol; values above 10 μM shown as 10 μM; read-out: T-type Calcium Channel Block α1H IC50
Readout Name: IC50 (nM)

>>> measured("CC(C)(F)CNC(=O)CN1CCC(CNC(=O)c2cc(F)cc(C(F)(F)F)c2)CC1 [Compound 556]")
1770
>>> measured("Cc1cc(F)cc(C(=O)NCC2CCN(CC(=O)NC(C)(C)C(F)(F)F)CC2)c1 [Compound 455]")
30
>>> measured("O=C(NCC1CCN(C2CN(C(=O)c3cc(F)cc(C(F)(F)F)c3)C2)CC1)c1cc(F)cc(Cl)c1 [Compound 604]")
1900
>>> measured("O=C(CN1CCC(CNC(=O)c2cc(F)cc(Cl)c2)CC1)NC1CCCC1 [Compound 531]")
80
>>> measured("COc1cc(OC)cc(C(=O)NCC2CCN(CC(=O)NC3(C)CCC3)CC2)c1 [Compound 478]")
110
>>> measured("CC(C)(C)OC(=O)NCCN1CCC(CNC(=O)c2cc(C(C)(C)C)cc(C(C)(C)C)c2)CC1 [Compound 49]")
7300
>>> measured("O=C(NCC1CCN(CC(=O)N2CC[C@H](C(F)(F)F)C2)CC1)c1cc(C(F)(F)F)cc(C(F)(F)F)c1 [Compound 348]")
110
>>> measured("C[C@H]1CC[C@H](NCC(=O)N2CCC(CNC(=O)c3cc(F)cc(C(F)(F)F)c3)CC2)CC1 [Compound 291]")
510
>>> measured("COc1cc(F)cc(C(=O)NCC2CCN(CC(=O)N3CCC[C@H]3C(F)(F)F)CC2)c1 [Compound 465]")
170
>>> measured("CC(C)(C)OC(=O)NCCN1CCC(CNC(=O)c2cc(C(F)(F)F)cc(C(F)(F)F)c2)CC1 [Compound 35]")
160
>>> measured("CC(C)NC(=O)CN1CCC(CNC(=O)c2cc(C(F)(F)F)cc(C(F)(F)F)c2)CC1 [Compound 344]")
120
>>> measured("CC(C)(C)C(=O)NCCN1CCC(CNC(=O)c2cc(Cl)cc(Cl)c2)CC1 [Compound 298]")
280
>>> measured("O=C(NCC1CCN(CCNC(=O)C2(C(F)(F)F)CCC2)CC1)c1cc(F)cc(Cl)c1 [Compound 511]")
90
>>> measured("CC(C)(C)OC(=O)NC(CN1CCC(CC(=O)NCc2cc(Cl)cc(Cl)c2)CC1)C(C)(C)C (stereo not shown) [Compound 198]")
1300
>>> measured("CC1CCC(C(=O)N(C)CCN2CCC(CNC(=O)c3cc(F)cc(C(F)(F)F)c3)CC2)CC1 (stereo not shown) [Compound 519]")
240

---

- Assay System: human α1H T-type channels (Homo sapiens)
- Construct: expressed in transfected cells; host or cells: HEK 293
- Test Protocol: T-type calcium channel block, whole cell patch clamp in HEK cells (α1H)
- Assay type: cell-based
- Conditions Used: HEK cells, patch clamp, mainly non-inactivated protocol; values above 10 μM shown as 10 μM; read-out: T-type Calcium Channel Block α1H IC50
- Procedure: T-type calcium channel blocking activity was assayed in human embryonic kidney cells, HEK 293, stably transfected with the T-type calcium channel subunits. […] Standard patch-clamp techniques were employed to identify blockers of T-type currents. […] Data were analyzed using Clampfit (Axon Instruments) and SigmaPlot 4.0 (Jandel Scientific). […]
Readout Name: IC50 (nM)

>>> measured("O=C(CN1CCC(CNC(=O)c2cccc(F)c2)CC1)NC1CCCC1 [Compound 535]")
2140
>>> measured("COc1cc(C(=O)NCC2CCN(CCNS(=O)(=O)C3CC3)CC2)cc(C(F)(F)F)c1 [Compound 235]")
440
>>> measured("O=C(NCC1CCN(CC(=O)N2CCC[C@H]2C(F)(F)F)CC1)c1cccc(C(F)(F)F)c1 [Compound 467]")
170
>>> measured("CC(C)(C(=O)NCCN1CCC(CNC(=O)c2cc(C(F)(F)F)cc(C(F)(F)F)c2)CC1)C(F)(F)F [Compound 338]")
160
>>> measured("O=C(NCC1CCN(CCNC(=O)C2(C(F)(F)F)CC2)CC1)c1cc(F)cc(Cl)c1 [Compound 472]")
40
>>> measured("O=C(CN1CCC(CNC(=O)c2cc(F)cc(C(F)(F)F)c2)CC1)NC1(C2CCOCC2)CC1 [Compound 561]")
270
>>> measured("CC(C)(CN1CCC(CNC(=O)c2cc(F)cc(C(F)(F)F)c2)CC1)NS(=O)(=O)C1CC1 [Compound 8]")
2420
